Reported pIC50 values for a set of compounds
- subjectOfTest: CDK6/Cyclin D1 (Homo sapiens (Human))
- Sequence (Q00534 whole entry): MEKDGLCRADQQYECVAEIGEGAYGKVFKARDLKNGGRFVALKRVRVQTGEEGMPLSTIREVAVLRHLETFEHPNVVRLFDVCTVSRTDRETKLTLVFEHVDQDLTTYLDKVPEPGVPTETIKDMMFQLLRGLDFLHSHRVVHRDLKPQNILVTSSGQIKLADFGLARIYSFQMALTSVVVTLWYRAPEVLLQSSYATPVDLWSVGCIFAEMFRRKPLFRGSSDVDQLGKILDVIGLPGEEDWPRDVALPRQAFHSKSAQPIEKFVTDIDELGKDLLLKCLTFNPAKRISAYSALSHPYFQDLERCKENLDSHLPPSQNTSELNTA
- Sequence (P24385 whole entry partner): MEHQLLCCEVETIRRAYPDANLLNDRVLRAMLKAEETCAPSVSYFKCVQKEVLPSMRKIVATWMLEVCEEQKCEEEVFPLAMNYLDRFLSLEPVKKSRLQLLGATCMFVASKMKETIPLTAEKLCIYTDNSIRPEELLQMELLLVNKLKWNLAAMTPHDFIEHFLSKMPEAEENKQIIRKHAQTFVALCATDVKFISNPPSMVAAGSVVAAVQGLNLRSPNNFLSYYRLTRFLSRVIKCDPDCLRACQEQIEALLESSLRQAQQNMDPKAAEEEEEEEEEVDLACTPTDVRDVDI
- testMethodNotes: CDK6/CyclinD1 enzymatic activity assay (TR-FRET)
- assaySetup: ATP 250 μM, read-out: CDK6_D1 IC50
pIC50: −log10 of the molar value.
measuredParameter: pIC50

>  <compound>
CCN1CCN(Cc2ccc(Nc3ncc(F)c(-c4sc5c(C6CCCC6)ccnc5c4Cl)n3)nc2)CC1 [Example 30]

>  <measuredParameter>
pIC50

>  <result>
6.70 to 7.70

$$$$
>  <compound>
Cc1c(-c2nc(Nc3ccc(C4CCCN(C)C4)cn3)ncc2F)sc2c1ncn2C(C)C (single isomer, unassigned) [Example 126]

>  <measuredParameter>
pIC50

>  <result>
≥ 7.70

$$$$
>  <compound>
Cc1c(-c2nc(Nc3ccc(C4CCN(C5CCOC5)CC4)cn3)ncc2F)sc2c(C(C)C)cn(C)c(=O)c12 (stereo not shown) [Example 84]

>  <measuredParameter>
pIC50

>  <result>
≥ 7.70

$$$$
>  <compound>
CCN1CCN(C(=O)c2ccc(Nc3ncc(F)c(-c4cc5nc(C)n(C(C)C)c5s4)n3)nc2)CC1 [Example 54]

>  <measuredParameter>
pIC50

>  <result>
6.70 to 7.70

$$$$
>  <compound>
Cc1c(-c2nc(Nc3ccc(C4CCCN(C)C4)cn3)ncc2F)sc2c1ncn2C(C)C (single isomer, unassigned) [Example 125]

>  <measuredParameter>
pIC50

>  <result>
≥ 7.70

$$$$
>  <compound>
CCN1CC2(C1)CN(c1ccc(Nc3ncc(F)c(-c4sc5c(nc(C)n5C(C)C)c4C)n3)nn1)C2 [Example 53]

>  <measuredParameter>
pIC50

>  <result>
≥ 7.70

$$$$
>  <compound>
CCN1CCN(c2ccc(Nc3ncc(F)c(-c4sc5c(nc(C)n5C(C)C)c4C)n3)nc2)CC1 [Example 2]

>  <measuredParameter>
pIC50

>  <result>
≥ 7.70

$$$$
